Molecular target: SARS-CoV-2 3CL^pro (Severe acute respiratory syndrome coronavirus 2, UniProt P0DTD1)
Test: biochemical
Conditions: IC50 (μM) 63 min, 63 min preincubation
Define the label as satisfied when IC50 is strictly less than 20 µM and as not satisfied in all remaining cases.

1) O=c1cc(-c2ccc(O)c(O)c2)oc2cc(O)cc(O)c12 :: satisfied
2) Oc1cc(O)c2c(c1)O[C@H](c1ccc(O)c(O)c1)[C@H](O)C2 [epicatechin] :: satisfied
3) COc1ccc(-c2cc(=O)c3c(O)cc(O)cc3o2)cc1-c1c(O)cc(O)c2c(=O)cc(-c3ccc(O)cc3)oc12 :: satisfied
4) COc1ccc(-c2cc(=O)c3c(O)cc(O)c(-c4cc(-c5cc(=O)c6c(O)cc(O)cc6o5)ccc4OC)c3o2)cc1 :: not satisfied
5) Oc1cc(O)c2c(c1)O[C@H](c1cc(O)c(O)c(O)c1)[C@@H](O)C2 :: satisfied
6) O=c1cc(-c2ccc(O)cc2)oc2cc(O)cc(O)c12 :: not satisfied

## Input # TODO verify IC50 < 20 µM strictly for this molecule: O=c1cc(-c2ccc(O)c(-c3c(O)cc(O)c4c(=O)cc(-c5ccc(O)cc5)oc34)c2)oc2cc(O)cc(O)c12
## Output not satisfied

## Input # TODO verify IC50 < 20 µM strictly for this molecule: COc1cc(O)c2c(=O)cc(-c3ccc(OC)c(-c4c(O)cc(O)c5c(=O)cc(-c6ccc(O)cc6)oc45)c3)oc2c1
## Output satisfied

----------
Here the recorded Ratio is given for each entry.
Target: SARS-CoV-2 3CL^pro (Severe acute respiratory syndrome coronavirus 2, UniProt P0DTD1)
Test: biochemical
Note: the reply should be a number with no unit written.

Some compounds with recorded Ratio:
1) O=c1cc(-c2ccc(O)c(-c3c(O)cc(O)c4c(=O)cc(-c5ccc(O)cc5)oc34)c2)oc2cc(O)cc(O)c12 [amentoflavone] :: 1.92
2) O=c1cc(-c2ccc(O)c(O)c2)oc2cc(O)cc(O)c12 [luteolin] :: 10.57
3) O=c1cc(-c2ccc(O)cc2)oc2cc(O)cc(O)c12 [apigenin] :: 3.62

Please turn your attention to the following entry.
## Input Entry under review: COc1ccc(-c2cc(=O)c3c(O)cc(O)cc3o2)cc1-c1c(O)cc(O)c2c(=O)cc(-c3ccc(O)cc3)oc12 [bilobetin] . Reported Ratio?
## Output 3.54

----------
Target: UniProt P0DTD1
Assay: biochemical
Here the recorded Ratio is given for each entry.
Note: the reply should be a number with no unit written.

1) Oc1cc(O)c2c(c1)O[C@H](c1cc(O)c(O)c(O)c1)[C@@H](O)C2 :: 3.30
2) Oc1cc(O)c2c(c1)O[C@H](c1ccc(O)c(O)c1)[C@H](O)C2 [epicatechin] :: 6.22
3) COc1ccc(-c2cc(=O)c3c(O)cc(O)c(-c4cc(-c5cc(=O)c6c(O)cc(O)cc6o5)ccc4OC)c3o2)cc1 :: 2.01

Please turn your attention to the following entry.
## Input Entry under review: COc1cc(O)c2c(=O)cc(-c3ccc(OC)c(-c4c(O)cc(O)c5c(=O)cc(-c6ccc(O)cc6)oc45)c3)oc2c1 . Reported Ratio?
## Output 10.32

----------
Molecular target: SARS-CoV-2 3CL^pro (Severe acute respiratory syndrome coronavirus 2, UniProt P0DTD1)
Test: biochemical
Conditions: IC50 (μM) 3 min, 3 min preincubation
MEASURED_ATTRIBUTE: IC50
In your response, the unit should come after the numeric value.

Some compounds with recorded IC50:
1) Oc1cc(O)c2c(c1)O[C@H](c1cc(O)c(O)c(O)c1)[C@@H](O)C2 [gallocatechin] :: 3.23 µM
2) O=c1cc(-c2ccc(O)cc2)oc2cc(O)cc(O)c12 [apigenin] :: 115 µM
3) COc1ccc(-c2cc(=O)c3c(O)cc(O)cc3o2)cc1-c1c(O)cc(O)c2c(=O)cc(-c3ccc(O)cc3)oc12 [bilobetin] :: 32.1 µM

## Input Entry under review: COc1cc(O)c2c(=O)cc(-c3ccc(OC)c(-c4c(O)cc(O)c5c(=O)cc(-c6ccc(O)cc6)oc45)c3)oc2c1 [ginkgetin] . Reported IC50?
## Output 76.5 µM

## Input Entry under review: O=c1cc(-c2ccc(O)c(-c3c(O)cc(O)c4c(=O)cc(-c5ccc(O)cc5)oc34)c2)oc2cc(O)cc(O)c12 [amentoflavone] . Reported IC50?
## Output 82.1 µM

----------
Target: SARS-CoV-2 3CL^pro (Severe acute respiratory syndrome coronavirus 2)
MEASURED_ATTRIBUTE: pKi
Please treat pKi as minus the base-10 logarithm of the molar concentration.

## Input Item Oc1cc(O)c2c(c1)O[C@H](c1cc(O)c(O)c(O)c1)[C@@H](O)C2 with SARS-CoV-2 3CL^pro (Severe acute respiratory syndrome coronavirus 2) - pKi?
## Output 5.60

----------
Target: UniProt:P0DTD1
Test: biochemical
Settings: IC50 (μM) 3 min, 3 min preincubation
Here the recorded IC50 is given for each entry.
Kindly provide the numeric value in µM only, without the unit symbol.

Some compounds with recorded IC50:
1. Oc1cc(O)c2c(c1)O[C@H](c1ccc(O)c(O)c1)[C@H](O)C2 [epicatechin] :: 70.6
2. O=c1cc(-c2ccc(O)c(O)c2)oc2cc(O)cc(O)c12 [luteolin] :: 195

Please turn your attention to the following entry.
## Input Entry under review: COc1ccc(-c2cc(=O)c3c(O)cc(O)c(-c4cc(-c5cc(=O)c6c(O)cc(O)cc6o5)ccc4OC)c3o2)cc1 [isoginkgetin] . Reported IC50?
## Output 70.8

Just for reference, paper PMC10052880 is where these values come from.
